Values from patent US20110028445A1

- target-or-test-system: 11β-HSD1 (Homo sapiens, UniProt P28845)
- Construct: detecting cortisol generated from cortisterone by human liver microsomes; from tissue; host or cells: human liver microsomes
- Sequence (P28845 whole entry): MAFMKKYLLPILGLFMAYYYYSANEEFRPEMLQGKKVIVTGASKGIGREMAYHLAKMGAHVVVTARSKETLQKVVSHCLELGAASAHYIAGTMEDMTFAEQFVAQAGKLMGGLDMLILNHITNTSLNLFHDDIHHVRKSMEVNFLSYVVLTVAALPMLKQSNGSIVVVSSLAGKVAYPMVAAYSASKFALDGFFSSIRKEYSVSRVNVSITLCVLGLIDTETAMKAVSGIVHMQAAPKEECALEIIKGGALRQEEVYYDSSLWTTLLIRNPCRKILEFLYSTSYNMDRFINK
- assay-explanation: In vitro inhibition of 11β-HSD1, HTRF detection of cortisol generated by human liver microsomes
- Assay type: biochemical
- condition-description: compound concentration 1 μM, 100% indicates no inhibition, zero or below zero indicates complete inhibition, cortisone 80 nM, 1 hour at 37° C., read-out: % CTL at 1 μM
Item-by-item account of remaining activity at 1 µM

- compound: "CC1(O)CCN(C(=O)N2CC[C@@]3(C)c4ccccc4C[C@@H]2C3(C)C)CC1 [Example 54]"
  target-or-test-system: "11β-HSD1 (Homo sapiens, UniProt P28845)"
  remaining activity at 1 µM: "-25%"
- compound: "CC1(C)[C@H]2Cc3c(O)cccc3[C@]1(C)CCN2C(=O)N1CCc2cc(O)ccc2C1 [Example 44]"
  target-or-test-system: "11β-HSD1 (Homo sapiens, UniProt P28845)"
  remaining activity at 1 µM: "-4%"
- compound: "CC1(C)[C@H]2Cc3ccccc3[C@]1(C)CCN2C(=O)N1[C@@H]2CC[C@H]1C[C@@](O)(C(F)(F)F)C2 [Example 80]"
  target-or-test-system: "11β-HSD1 (Homo sapiens, UniProt P28845)"
  remaining activity at 1 µM: "70%"

* * *

Item-by-item account of remaining activity at 1 µM
- target-or-test-system: 11β-HSD1 (Homo sapiens, UniProt P28845)
- Construct: detecting cortisol generated from cortisterone by human liver microsomes; from tissue; host or cells: human liver microsomes
- assay-explanation: In vitro inhibition of 11β-HSD1, HTRF detection of cortisol generated by human liver microsomes
- Type: biochemical
- condition-description: compound concentration 1 μM, 100% indicates no inhibition, zero or below zero indicates complete inhibition, cortisone 80 nM, 1 hour at 37° C., read-out: % CTL at 1 μM
readout-kind: remaining activity at 1 µM (%)

- compound: "CC1(C)[C@H]2Cc3ccccc3[C@]1(C)CCN2C(=O)N1CCCCC1"
  target-or-test-system: "11β-HSD1 (Homo sapiens, UniProt P28845)"
  readout-kind: "remaining activity at 1 µM"
  observed-result: -47
- compound: "CC1(C)[C@H]2Cc3ccccc3[C@]1(C)CCN2C(=O)N1[C@@H]2CC[C@H]1C[C@](O)(C(F)(F)F)C2"
  target-or-test-system: "11β-HSD1 (Homo sapiens, UniProt P28845)"
  readout-kind: "remaining activity at 1 µM"
  observed-result: -6
- compound: "CC1(C)[C@H]2Cc3c(O)cccc3[C@]1(C)CCN2C(=O)N1CCC(O)CC1"
  target-or-test-system: "11β-HSD1 (Homo sapiens, UniProt P28845)"
  readout-kind: "remaining activity at 1 µM"
  observed-result: -53
- compound: "CC1(C)[C@H]2Cc3ccccc3[C@]1(C)CCN2C(=O)N1CCC(CCO)(c2ccccc2)C1 (stereo partly shown)"
  target-or-test-system: "11β-HSD1 (Homo sapiens, UniProt P28845)"
  readout-kind: "remaining activity at 1 µM"
  observed-result: 30

* * *

Item-by-item account of remaining activity at 1 µM
- target-or-test-system: 11β-HSD1 (Homo sapiens)
- Construct: detecting cortisol generated from cortisterone by human liver microsomes; from tissue; host or cells: human liver microsomes
- assay-explanation: In vitro inhibition of 11β-HSD1, HTRF detection of cortisol generated by human liver microsomes
- Type: biochemical
- condition-description: compound concentration 1 μM, 100% indicates no inhibition, zero or below zero indicates complete inhibition, cortisone 80 nM, 1 hour at 37° C., read-out: % CTL at 1 μM
readout-kind: remaining activity at 1 µM

- compound: "CC1(C)[C@H]2Cc3c(O)cccc3[C@]1(C)CCN2C(=O)N1CCc2cccc(O)c2C1"
  observed-result: "-10%"
- compound: "CC1(C)[C@H]2Cc3ccccc3[C@]1(C)CCN2C(=O)N1CCC(c2ccccc2)C1 (stereo partly drawn)"
  observed-result: "7%"
- compound: "CC1(C)[C@H]2Cc3c(O)cccc3[C@]1(C)CCN2C(=O)N1CCc2ccccc21"
  observed-result: "-8%"
- compound: "CC1(C)[C@H]2Cc3c(O)cccc3[C@]1(C)CCN2C(=O)N1CCc2sccc2C1"
  observed-result: "-27%"
- compound: "CC1(C)[C@H]2Cc3c(OCC#N)cccc3[C@]1(C)CCN2C(=O)N1CCCCC1"
  observed-result: "23%"
- compound: "CC1(C)[C@H]2Cc3ccccc3[C@]1(C)CCN2C(=O)N1CCOC[C@H]1c1ccccc1"
  observed-result: "71%"
- compound: "CC1(C)[C@H]2Cc3c(O)cccc3[C@]1(C)CCN2C(=O)N1CCCCC1"
  observed-result: "-46%"
- compound: "CC1(C)[C@H]2Cc3c(O)cccc3[C@]1(C)CCN2C(=O)N1CCCC(c2nnn[nH]2)C1 (stereo partly drawn)"
  observed-result: "70%"
- compound: "CCOC(=O)[C@H]1CCCN(C(=O)N2CC[C@@]3(C)c4ccccc4C[C@@H]2C3(C)C)C1"
  observed-result: "13%"
- compound: "CC1(C)[C@H]2Cc3cc(C#N)ccc3[C@]1(C)CCN2C(=O)N1CCCCC1"
  observed-result: "-31%"
- compound: "CC1(C)[C@H]2Cc3c(O)cccc3[C@]1(C)CCN2C(=O)N1[C@@H]2CC[C@H]1C[C@@H](c1ccc(F)cc1)C2"
  observed-result: "-43%"
- compound: "CC1(C)[C@H]2Cc3ccccc3[C@]1(C)CCN2C(=O)N1[C@@H]2CC[C@H]1C[C@H](O)C2"
  observed-result: "13%"
- compound: "CC1(O)CCN(C(=O)N2CC[C@@]3(C)c4cccc(O)c4C[C@@H]2C3(C)C)CC1"
  observed-result: "-41%"
- compound: "CC1(C)[C@H]2Cc3c(O)cccc3[C@]1(C)CCN2C(=O)N1CCc2ccc(O)cc2C1"
  observed-result: "-37%"
- compound: "CC1(C)[C@H]2Cc3ccccc3[C@]1(C)CCN2C(=O)N1[C@@H]2CC[C@H]1C[C@@H](O)C2"
  observed-result: "-17%"
- compound: "CC1(C)[C@H]2Cc3ccccc3[C@]1(C)CCN2C(=O)N1[C@@H]2CC[C@H]1CC(=O)C2"
  observed-result: "-10%"
- compound: "CC1(C)[C@H]2Cc3c(ccc(C#N)c3O)[C@]1(C)CCN2C(=O)N1CCCCC1"
  observed-result: "-30%"
- compound: "CC1(C)[C@H]2Cc3c(O)cccc3[C@]1(C)CCN2C(=O)N1CCc2ccsc2C1"
  observed-result: "-32%"
- compound: "C[C@@H]1[C@H]2Cc3ccc(C#N)cc3[C@]1(C)CCN2C(=O)N1CCCCC1"
  observed-result: "-28%"
- compound: "CC1(C)[C@H]2Cc3c(O)cccc3[C@]1(C)CCN2C(=O)N1CCc2ccccc2C1"
  observed-result: "18%"
- compound: "CC1(C)[C@H]2Cc3c(O)cccc3[C@]1(C)CCN2C(=O)N1CCCC1CO (stereo partly drawn)"
  observed-result: "36%"
